Tested on: P. falciparum W2
Test: Testing of compounds against P. falciparum strain W2
Type: cell-based
Conditions: Plasmodium falciparum; target strain W2 (chloroquine and pyrimethamine resistant); read-out: IC90
value.type: IC90 (µg/mL)

Quickly give me recorded IC90 for CO[C@H]1/C=C\C=C(/C)C(=O)NC2=CC(=O)C(N3CCC3)=C(C[C@@H](C)C[C@H](OC)[C@H](O)[C@@H](C)/C=C(\C)[C@@H]1OC(N)=O)C2=O [Compound G]
0.208

(I) CO[C@H]1/C=C\C=C(/C)C(=O)NC2=CC(=O)C(N3CCC3)=C(C[C@@H](C)C[C@H](OC)[C@H](OC(=O)CCCN)[C@@H](C)/C=C(\C)[C@@H]1OC(N)=O)C2=O [Compound A]
(II) OC(c1cc(C(F)(F)F)nc2c(C(F)(F)F)cccc12)C1CCCCN1 (stereo not shown) [Mefloquine, reference compound]
(III) CO[C@H]1/C=C\C=C(/C)C(=O)NC2=CC(=O)C(N3CCC3)=C(C[C@@H](C)C[C@H](OC)[C@H](O)[C@@H](C)/C=C(\C)[C@@H]1OC(=O)C1CC1)C2=O [Compound C]
Arrange the 3 compounds by rising IC90, starting with the smallest. Rank them, then answer with their labels in that order.
II, I, III

----------
System: P. falciparum W2
Assay: Testing of compounds against P. falciparum strain W2
Assay type: cell-based
Details: Plasmodium falciparum; target strain W2 (chloroquine and pyrimethamine resistant); read-out: IC90
value.type: IC90 (µg/mL)

Quickly give me recorded IC90 for CCC(=O)O[C@H]1/C(C)=C/[C@H](C)[C@@H](O)[C@@H](OC)C[C@H](C)CC2=C(N3CCC3)C(=O)C=C(NC(=O)/C(C)=C/C=C\[C@@H]1OC)C2=O
3.74

(1) CO[C@H]1/C=C\C=C(/C)C(=O)NC2=CC(=O)C(N3CCC3)=C(C[C@@H](C)C[C@H](OC)[C@H](O)[C@@H](C)/C=C(\C)[C@@H]1O)C2=O
(2) CCCC(=O)O[C@H]1/C(C)=C/[C@H](C)[C@@H](O)[C@@H](OC)C[C@H](C)CC2=C(N3CCC3)C(=O)C=C(NC(=O)/C(C)=C/C=C\[C@@H]1OC)C2=O
Which value of IC90 is numerically greater: that of 1 or that of 2 ? Your choice should be expressed through its label.
1

----------
Tested on: P. falciparum W2
Assay: Testing of compounds against P. falciparum strain W2
Assay type: cell-based
Conditions: Plasmodium falciparum; target strain W2 (chloroquine and pyrimethamine resistant); read-out: IC50
value.type: IC50 (mg/L)

Past entries and their recorded results:
Quickly give me recorded IC50 for CO[C@H]1/C=C\C=C(/C)C(=O)NC2=CC(=O)C(N3CCC3)=C(C[C@@H](C)C[C@H](OC)[C@H](O)[C@@H](C)/C=C(\C)[C@@H]1OC(N)=O)C2=O [Compound G]
0.0683

Quickly give me recorded IC50 for CO[C@H]1/C=C\C=C(/C)C(=O)NC2=CC(=O)C(N3CCC3)=C(C[C@@H](C)C[C@H](OC)[C@H](O)[C@@H](C)/C=C(\C)[C@@H]1OC(=O)C1CC1)C2=O [Compound C]
0.875

(I) CO[C@H]1/C=C\C=C(/C)C(=O)NC2=CC(=O)C(N3CCC3)=C(C[C@@H](C)C[C@H](OC)[C@H](OC(=O)CCCN)[C@@H](C)/C=C(\C)[C@@H]1OC(N)=O)C2=O [Compound A]
(II) OC(c1cc(C(F)(F)F)nc2c(C(F)(F)F)cccc12)C1CCCCN1 (centres unmarked) [Mefloquine, reference compound]
Which value of IC50 is numerically greater: that of I or that of II ? Your choice should be expressed through its label.
I
(I: 0.65 mg/L, II: 0.00163 mg/L)
